Consider the following binders and their measured peptide exchange yield readings.
- systemTested: HLA-A*24 (human)
- assayName: UV-ligand exchange, anti-b2m ELISA

binder="EFGSLHLEFL [peptide SEQ ID No 194 …]" assayresult="< 20%"

The binder identified as VYPWLGALL [peptide SEQ ID No 177 …] registered its peptide exchange yield at > 75%

The binder identified as VYVSDIQEL [peptide SEQ ID No 288 …] registered its peptide exchange yield at 50 to 75%

The binder identified as KFSSFSLFF [peptide SEQ ID No 164 …] registered its peptide exchange yield at 50 to 75%

The binder identified as KYMVYPQTF [peptide SEQ ID No 267 …] registered its peptide exchange yield at > 75%

The binder identified as LYLDKATLI [peptide SEQ ID No 198 …] registered its peptide exchange yield at 50 to 75%

The binder identified as FFPPTRQMGLLF [peptide SEQ ID No 217 …] registered its peptide exchange yield at > 75%

The binder identified as KYQDILETI [peptide SEQ ID No 168 …] registered its peptide exchange yield at > 75%

The binder identified as IYLVSIPEL [peptide SEQ ID No 161 …] registered its peptide exchange yield at > 75%

The binder identified as VYTLDIPVL [peptide SEQ ID No 160 …] registered its peptide exchange yield at > 75%

The binder identified as SYALLTYMI [peptide SEQ ID No 192 …] registered its peptide exchange yield at > 75%

The binder identified as IFLDYEAGTLSF [peptide SEQ ID No 227 …] registered its peptide exchange yield at > 75%

The binder identified as MYDSYWRQF [peptide SEQ ID No 179 …] registered its peptide exchange yield at > 75%

The binder identified as KFVDSTFYL [peptide SEQ ID No 282 …] registered its peptide exchange yield at > 75%

The binder identified as VYQGHTALL [peptide SEQ ID No 277 …] registered its peptide exchange yield at > 75%

The binder identified as IYDDSFIRPVTF [peptide SEQ ID No 180 …] registered its peptide exchange yield at 50 to 75%

src = patent US20170189510A1
